The measurements presented in this section are drawn from PubChem BioAssay (NCATS).

test: qHTS of pediatric cancer cell lines to identify multiple opportunities for drug repurposing: Primary screen for Rh30 cells (AID 1347107); conditions: Rh30 rhabdomyosarcoma viability, CellTiter-Glo luminescence, 48 h; series mostly up to 46 µM; further: on the % scale 0 is the no-effect control and ±100 the full control effect; nearly all actives have a fitted effect of over 75% in size
Records with an inconclusive call do not appear. Calls of active or inactive are those of the source. The call rests on the fitted dose curve; in most records, active means well fitted cell-killing curve with a large enough effect; inconclusive means small, poorly fitted or top-dose-only effect; inactive means no such curve, though single readings can be large or run the other way.

{"compound": "O=c1[nH]cnc2nc[nH]c12", "activity change, negative = cytotoxic": "inactive"}
{"compound": "Cc1cccc(C)c1NC(=O)CC12CCCN1CCC2", "activity change, negative = cytotoxic": "inactive"}
{"compound": "Cc1ccc(C(C)C)c(O)c1", "activity change, negative = cytotoxic": "inactive"}
{"compound": "N[C@@H](Cc1ccc(O)cc1)C(=O)O", "activity change, negative = cytotoxic": "21.6% [at 9.22 µM] (inactive)"}
{"compound": "O=C1C(c2[nH]c3ccccc3c2O)=Nc2ccccc21", "activity change, negative = cytotoxic": "inactive"}
{"compound": "COc1ccc(Cc2cnc(N)nc2N)cc1OC", "activity change, negative = cytotoxic": "inactive"}
{"compound": "O=c1[nH]c(=O)n([C@H]2C[C@H](O)[C@@H](CO)O2)cc1I", "activity change, negative = cytotoxic": "inactive"}
{"compound": "OC(CCN1CCCC1)(c1ccccc1)C1CCCCC1 (stereo not given)", "activity change, negative = cytotoxic": "inactive"}
{"compound": "O=C(c1ccccc1)C(O)c1ccccc1 (stereo not given)", "activity change, negative = cytotoxic": "inactive"}
{"compound": "CN1C(=O)CC(c2ccccc2)C1=O (stereo not given)", "activity change, negative = cytotoxic": "inactive"}
{"compound": "CC(C)=CCC/C(C)=C/CO", "activity change, negative = cytotoxic": "inactive"}
{"compound": "O=C(O)/C=C/c1ccc(Cn2ccnc2)cc1", "activity change, negative = cytotoxic": "inactive"}
{"compound": "Cn1c(=O)c2c(ncn2CCO)n(C)c1=O", "activity change, negative = cytotoxic": "inactive"}
{"compound": "NS(=O)(=O)c1cc(-c2nn[nH]n2)c(NCc2cccs2)cc1Cl", "activity change, negative = cytotoxic": "inactive"}
{"compound": "CC(=O)Nc1ccc(C(=O)O)cc1", "activity change, negative = cytotoxic": "inactive"}
{"compound": "COc1ccc(-c2cc(=O)c3c(O)cc(O[C@@H]4O[C@H](CO[C@@H]5O[C@@H](C)[C@H](O)[C@@H](O)[C@H]5O)[C@@H](O)[C@H](O)[C@H]4O)cc3o2)cc1O", "activity change, negative = cytotoxic": "inactive"}
{"compound": "CC(=O)N[C@@H](CC(C)C)C(=O)O", "activity change, negative = cytotoxic": "inactive"}
{"compound": "O=C(O)CCC(=O)O", "activity change, negative = cytotoxic": "inactive"}
{"compound": "COc1ccc(C(=O)NCc2ccc(OCCN(C)C)cc2)cc1OC", "activity change, negative = cytotoxic": "inactive"}
{"compound": "CNc1c2c(nn1C)CCCC2", "activity change, negative = cytotoxic": "inactive"}
{"compound": "COc1ccc(O)cc1", "activity change, negative = cytotoxic": "inactive"}
{"compound": "COc1cc(C(=O)NCCCCCC(=O)O)cc(OC)c1OC", "activity change, negative = cytotoxic": "inactive"}
{"compound": "CC(=O)N(CC(O)CN(C(C)=O)c1c(I)c(C(=O)NCC(O)CO)c(I)c(C(=O)NCC(O)CO)c1I)c1c(I)c(C(=O)NCC(O)CO)c(I)c(C(=O)NCC(O)CO)c1I (stereo not given)", "activity change, negative = cytotoxic": "inactive"}
{"compound": "Cc1ccc(S(=O)(=O)NC(=O)NC2CCCCCCC2)cc1", "activity change, negative = cytotoxic": "inactive"}
{"compound": "CN1C[C@@H]2C[C@H]1CN2c1cc2c(cc1F)c(=O)c(C(=O)O)cn2C1CC1", "activity change, negative = cytotoxic": "inactive"}
